biological target: HLA-A*02:01; experiment: IEDB peptide-MHC binding, purified MHC/competitive/radioactivity; filed as Kd, often an IC50 or EC50 that approximates it; bounds were set here for any values at or beyond the usual limits of such assays; conditions: source organism: Hepatitis B virus
Value kind: Kd

residue_string=DLVVSYVNV value_kind=Kd observed_measurement="≥ 50 µM"

====

Reported values of Kd for individual entries
biological target: HLA-A*02:01; experiment: IEDB peptide-MHC binding, purified MHC/competitive/radioactivity; filed as Kd, often an IC50 or EC50 that approximates it; bounds were set here for any values at or beyond the usual limits of such assays; conditions: source organism: Homo sapiens
Value kind: Kd

residue_string=DLESEFQAAL tested_system=HLA-A*02:01 observed_measurement="≥ 50 µM"
residue_string=PLTSIISAV tested_system=HLA-A*02:01 observed_measurement="3.33 µM"
residue_string=PLERFAELV tested_system=HLA-A*02:01 observed_measurement="≥ 50 µM"
residue_string=KLPGLLSRDL tested_system=HLA-A*02:01 observed_measurement="≥ 50 µM"
residue_string=DLFGIWSKV tested_system=HLA-A*02:01 observed_measurement="≥ 25 µM"
residue_string=ALSRKVAELV tested_system=HLA-A*02:01 observed_measurement="≥ 50 µM"
residue_string=SLQLVFGIEL tested_system=HLA-A*02:01 observed_measurement="0.102 µM"

====

biological target: HLA-A*02:01; assay: IEDB peptide-MHC binding, purified MHC/competitive/radioactivity; filed as Kd, often an IC50 or EC50 that approximates it; bounds were set here for any values at or beyond the usual limits of such assays; settings: source organism: Human papillomavirus 16
Value kind: Kd (µM)

residue_string=RLCVQSTHV observed_measurement=16.7

====

target: HLA-A*02:01; assay: IEDB peptide-MHC binding, purified MHC/competitive/radioactivity; filed as Kd, often an IC50 or EC50 that approximates it; bounds were set here for any values at or beyond the usual limits of such assays; conditions: source organism: Hepatitis B virus adw/Indonesia/PIDW420
Value kind: Kd (nM)

residue_string=FLCILLLCLI observed_measurement=2380
